# Test system: BT-549
# EXPERIMENTAL_PROTOCOL: NCI tumour cell line growth inhibition, 48 h
The source made the active and inactive calls. Cut-off read from the data, not from the text of the source: active = GI50 up to about 1.1 µM and inactive = higher. Positions of bridges follow the written chain, without caps; N, C: chain ends. Non-standard residues stand in square brackets, D forms with d. Residues, ends and D or L forms follow the SMILES beside them. ξ: configuration not given here. *: point of attachment. X28 = O=C(/C=C/C=C/C=C/C=C/C=C/C(=O)*)NC1=C(O)CCC1=O; Pro(4R-Me) = C[C@H]1CN[C@H](C(=O)O)C1; NMeA = CN[C@@H](C)C(=O)O; ξF = NC(Cc1ccccc1)C(=O)O; ξA = CC(N)C(=O)O
I would appreciate it if you answered using one of these outcomes: class 1 (active), class 0 (inactive)

Here are 4 compounds together with their reported answers.
Exam item: Recorded test call requested for "CC(=O)OCOC(=O)CN(CC(=O)OCOC(C)=O)Cc1cc2c(cc1OC(C)=O)Oc1cc(OC(C)=O)c(CN(CC(=O)OCOC(C)=O)CC(=O)OCOC(C)=O)cc1C21OC(=O)c2ccccc21"
Marked response: class 1

Exam item: Recorded test call requested for Cc1ccnc2c1C(=O)C1=C(OC(C)(C)CC1O)C2=O (stereo not given)
Marked response: class 0

Exam item: Recorded test call requested for "COc1ccc(CNC2=N/C(=C\c3ccccc3Cl)C(=O)N2C)cc1"
Marked response: class 0

Exam item: Recorded test call requested for "O=[N+]([O-])c1ccc2[nH]ncc2c1Cl"
Marked response: class 0

# evaluate next
Exam item: Recorded test call requested for CC1NC(=O)[C@H](C)N(C)C(=O)[C@@H]2CCCN2C(=O)[C@@H](NC(=O)C(Cc2ccccc2)NC(=O)/C=C/C=C/C=C/C=C/C=C/C(=O)NC2=C(O)CCC2=O)COC(=O)[C@@H]2C[C@@H](C)CN2C1=O (stereo partly drawn) (X28-[ξF]SP[NMeA][ξA][Pro(4R-Me)]; ester 2-C)
Marked response: class 0

----------
Known GI50 of a selection of molecules
# Tested on: SK-MEL-5
# EXPERIMENTAL_PROTOCOL: NCI tumour cell line growth inhibition, 48 h
Calls of active or inactive are those of the source. Rule as the data show it: active = GI50 up to about 1.1 µM and inactive = higher.

Exam item: Return GI50 for the following molecule: "NS(=O)(=O)c1ccc(NC(=O)c2ccc3nc4ccccc4c(Nc4ccc(S(N)(=O)=O)cc4)c3c2)cc1"
Marked response: > 100 µM (inactive)

Exam item: Return GI50 for the following molecule: "Clc1nc(Nc2nc3ccccc3[nH]2)nc(Cl)c1-c1ccccc1"
Marked response: 20.9 µM (inactive)

Exam item: Return GI50 for the following molecule: CC(=O)N1C(OCc2ccccc2)CCN1c1ccccc1 (stereo unspecified)
Marked response: > 10 µM (inactive)

----------
# System: UACC-257
# EXPERIMENTAL_PROTOCOL: NCI tumour cell line growth inhibition, 48 h
Active and inactive are the calls of the source. Rule as the data show it: active = GI50 up to about 1.1 µM and inactive = higher.
Known GI50 of a selection of compounds

Some compounds with known GI50 results, for comparison:
Exam item: Return GI50 for the following compound: "Oc1ccccc1/C=N/c1ccc(-c2nc3ccccc3[nH]2)cc1"
Marked response: 47.8 µM (inactive)

Exam item: Return GI50 for the following compound: "CCCCSC1=N/C(=C\c2ccco2)C(Cl)=N1"
Marked response: > 100 µM (inactive)

Okay, now this compound:
Exam item: Return GI50 for the following compound: "COc1nc2sc3c(c2c(=O)n1CCCSSCCCn1c(OC)nc2sc4c(c2c1=O)CCCC4)CCCC3"
Marked response: > 100 µM (inactive)
